- targetSystem: T1, PefR (Streptococcus agalactiae, UniProt Q8E4J9 1-146)
- T1 sequence: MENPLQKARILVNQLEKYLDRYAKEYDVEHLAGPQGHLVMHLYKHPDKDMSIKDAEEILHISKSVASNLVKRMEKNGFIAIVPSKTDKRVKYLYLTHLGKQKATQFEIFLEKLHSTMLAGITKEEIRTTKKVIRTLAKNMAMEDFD
- procedureText: fluorescence polarization; apo (heme-free); 1:1 dimer:dsDNA; 500 mM NaCl; EMSA: 20 mM Tris-HCl pH 7.4, 50 mM KCl, 5% glycerol, 0.2 M MgCl2, room temperature; FP: 40 mM HEPES/Na pH 7.4, 500 mM NaCl, 10% glycerol, 10 nM DNA, room temperature
- measurementContext: protein: recombinant; tags: C-terminal HRV3C site-6xHis, His tag removed by HRV3C protease (site remnant remains); chain copies: 2; label: 5'-FAM on antisense strand; blunt
resultType: Kd (nM)
Provide only the numeric value, understood in nM.

Reported Kd for pefAB operator 38 bp (dsDNA) DNA 1: GCTATTATAAAATAGTTCTCACGATAACTAAAATAATG DNA 2: CATTATTTTAGTTATCGTGAGAACTATTTTATAATAGC : what is it?
40
